# Tested on: SK-MEL-5 melanoma
# measurementDescription: NCI-60 one-dose screen, 48 h
# cond: 10 µM unless noted
Compounds without any hit were thinned out: in the full panel of roughly 83,000, 20% have a hit. The source made the active and inactive calls. Rule for the calls: active = growth percent below 10; inactive = the rest.
Assign a class; possible classes are active, inactive

See these solved cases before continuing.
// outcome(item) with item = COc1ccc(-c2ccnc(SCc3cc4ccccc4[nH]c3=O)n2)cc1OC
active

// outcome(item) with item = Nc1cc2ccccc2c(=O)n1NC(=O)c1ccc(I)cc1
inactive

// outcome(item) with item = COc1ccc(-c2nc(SC(C)C)nc(NCCc3c[nH]c4ccccc34)c2C#N)cc1
active

Further cases:
// outcome(item) with item = COCOc1ccc2c(=O)c(C)c(C(=O)N[C@@H](Cc3ccccc3)C(O)C(=O)NCCc3ccc(OC)cc3)oc2c1 (stereo partly specified)
inactive

// outcome(item) with item = COc1c(F)ccc(C(=O)Nc2ccc3nc(NC(=O)C4CCCN(S(=O)(=O)c5ccc(Br)s5)C4)sc3c2)c1F (stereo unspecified)
inactive

====

# System: OVCAR-5 ovarian
# measurementDescription: NCI-60 one-dose screen, 48 h
# cond: 10 µM unless noted
This is part of a sample that, as a whole, favours compounds with a hit. Of some 83,000 tested, about 20% had one in any assay. Calls of active or inactive are those of the source. The calls were made as follows: active = growth percent below 10; inactive = the rest.
Assign a class; possible classes are label 1 for active, label 0 for inactive

// outcome(item) with item = O=C(/C=C/c1ccc(-c2ccccc2)cc1)c1nc2ccccc2n1Cc1ccc(F)cc1
label 0

// outcome(item) with item = CC(C)Sc1nc(NCCc2c[nH]c3ccccc23)c(C#N)c(-c2ccc(F)cc2)n1
label 0

// outcome(item) with item = Cc1cc2nc3c4ccccc4n(CCCN(C)C)c3nc2cc1C
label 1

// outcome(item) with item = CC1CN(c2oc(-c3ccc([N+](=O)[O-])cc3)nc2C#N)CC(C)O1 (configuration not stated)
label 0

// outcome(item) with item = C=C1CC[C@@H]2[C@]3(C)COC(c4ccccc4)O[C@@H]3CC[C@@]2(C)[C@@H]1C/C=C1/C(=O)OCC1OC(C)=O (some centres not stated)
label 1

// outcome(item) with item = Nc1cc2ccccc2c(=O)n1NC(=O)c1ccc(I)cc1
label 0

// outcome(item) with item = COc1c(F)ccc(C(=O)Nc2ccc3nc(NC(=O)C4CCCN(S(=O)(=O)c5ccc(Cl)cc5)C4)sc3c2)c1F (configuration not stated)
label 0

// outcome(item) with item = Cc1ccc(NCC(=O)Cn2cc(COc3ccc(C=Nc4cnc5ccccc5c4)cc3)nn2)cc1
label 0

Further cases:
// outcome(item) with item = CCN(CC)C(=O)N/C(N)=N/c1nc2ccccc2s1
label 0

// outcome(item) with item = C=C1CC[C@@H]2[C@]3(C)COC(c4cn(-c5ccccc5)nc4-c4cccc([N+](=O)[O-])c4)O[C@@H]3CC[C@@]2(C)[C@@H]1C/C=C1/C(=O)OC[C@H]1O (some centres not stated)
label 1

// outcome(item) with item = Nc1nnc(-c2c[nH]c3ncc(Br)cc23)c(-c2c[nH]c3ccc(F)cc23)n1
label 0

====

# Test system: EKVX NSCLC
# measurementDescription: NCI-60 one-dose screen, 48 h
# cond: 10 µM unless noted
# Protocol: Growth inhibition of the EKVX human Non-Small Cell Lung tumor cell line is measured as a screen for anti-cancer activity. Cells are grown in 96 well plates and exposed to the test compound for 48 hours. Compounds are tested at a single concentration, which is 10^-5 M for most compounds. The reported endpoint is percent growth (GI% or GIPRCNT), where numbers from 0 - 100% represent growth inhibition, and numbers from -100% - 0 represent cell death. […]
The panel holds about 83,000 compounds, 20% with a hit somewhere; the sample as a whole holds those more often. Active and inactive are the calls of the source. How the source made its calls: active means growth percent below 10; inactive means the rest.
Assign a class; possible classes are active, inactive

// outcome(item) with item = CC(C)(C)OC(=O)/C=C/c1cccc2c1C(=O)NC(C)(c1cc3cc(Cl)ccc3oc1=O)N2 (stereo not drawn)
inactive

// outcome(item) with item = COC(=O)C[C@](O)(CCCC(C)(C)O)C(=O)O[C@H]1C(OC)=C[C@@]23CCCN2CCc2cc4c(cc2[C@@H]13)OCO4
active

// outcome(item) with item = COc1c(F)ccc(C(=O)Nc2ccc3nc(NC(=O)C4CCCN(S(=O)(=O)c5ccc(Br)c(F)c5)C4)sc3c2)c1F (stereo not drawn)
inactive

// outcome(item) with item = CCOC(=O)C1=C(N)N(c2ccccc2)C2=C(C(=O)CC(C)(C)C2)C1c1cccc(Cl)c1Cl (stereo not drawn)
inactive

// outcome(item) with item = COc1ccc(C(SCCNCc2cc(N(C)C)ccn2)(c2ccccc2)c2ccccc2)cc1
active

// outcome(item) with item = N#Cc1c(NCc2ccccc2)n[nH]c1Nc1ccccc1
inactive

// outcome(item) with item = C=C1CCC2C3(C)COC(c4ccc(F)cc4)OC3CCC2(C)C1CC(O)C1=CCOC1=O (stereo not drawn)
inactive

// outcome(item) with item = CCCSc1nc(Nc2ccc(S(N)(=O)=O)cc2)c(C#N)c(-c2cc(OC)c(OC)c(OC)c2)n1
inactive

// outcome(item) with item = Clc1cccc(Cl)c1/C=C/c1cc(/C=C/c2ccc(Br)cc2)c2ccccc2n1
inactive

// outcome(item) with item = COc1ccc(/C=C2\C(=N)N=C(SCc3nc4ccccc4[nH]3)NC2=O)cc1
inactive

Further cases:
// outcome(item) with item = COc1ccc(-c2nnc3ccc(N/N=C/c4ccc(C)cc4)nn23)cc1
inactive

// outcome(item) with item = C#CCOc1cc(N(CC)CC)ccc1C(C(=O)NC(C)(C)C)N(C(=O)C1CCc2cc(F)ccc2O1)c1ccccc1Br (stereo not drawn)
inactive

====

# System: K-562 leukemia
# measurementDescription: NCI-60 one-dose screen, 48 h (100 = growth as untreated, 0 = no growth, -100 = all killed)
# cond: 10 µM unless noted
The panel holds about 83,000 compounds, 20% with a hit somewhere; the sample as a whole holds those more often.
// label = Fulfilled if growth is not less than 30%, otherwise Not fulfilled

Tell me whether growth is at least 30% here: CC(/C=C1\SC(=S)N(CCCC(=O)NC(CC(C)C)C(=O)O)C1=O)=C\c1ccccc1 (stereo unspecified)
Fulfilled

Tell me whether growth is at least 30% here: NS(=O)(=O)c1ccc(-n2cc(-c3cccc(NC(=O)c4cc(C(F)(F)F)cc(C(F)(F)F)c4)c3)nn2)cc1
Fulfilled

Tell me whether growth is at least 30% here: COc1cc2c(c(OC)c1OC)C(=O)CC(c1cccc(NC(=O)c3cccc(NC(=O)[C@H](C)NC(=O)OC(C)(C)C)c3)c1)O2 (stereo partly specified)
Fulfilled

Tell me whether growth is at least 30% here: O=c1[nH]n(C(=S)N/N=C/c2ccccc2Cl)c(=O)c2ccccc12
Not fulfilled

Tell me whether growth is at least 30% here: CCCSc1nc(NCCc2c[nH]c3ccccc23)c(C#N)c(-c2ccc(F)cc2)n1
Not fulfilled

Tell me whether growth is at least 30% here: N#Cc1ccc(/C=N/NC(=O)c2[nH]c3ccc(Br)cc3c2-c2ccccc2)o1
Not fulfilled

====

# Tested on: RXF 393 renal
# measurementDescription: NCI-60 one-dose screen, 48 h
# cond: 10 µM unless noted
About 83,000 compounds went through this panel and 20% of them were active in at least one assay; those are over-represented in the sample as a whole. Active and inactive are the calls of the source. How the source made its calls: active means growth percent below 10; inactive means the rest.
Assign a class; possible classes are active, inactive

// outcome(item) with item = CC(=O)Nc1cccc(Nc2nc(NCc3ccccc3)c3ccccc3n2)c1
active

// outcome(item) with item = CCN1CCN(Cc2ccc(C(=O)Nc3cccc(C#Cc4cccc5[nH]nc(N)c45)c3)cc2C(F)(F)F)CC1
active

// outcome(item) with item = Cc1ccc([C@H]2C(C(=O)c3ccc(Cl)cc3)C3(N[C@@H]2c2ccccc2)C(=O)Nc2ccc(Cl)cc23)cc1 (stereo not given in full)
inactive

Further cases:
// outcome(item) with item = N/C(=N\N=C\c1ccc([N+](=O)[O-])cc1)c1c(N)nc(=S)[nH]c1-c1ccc(Cl)cc1Cl
inactive

// outcome(item) with item = S=C(Nc1ccccc1)Nc1ccc(OCc2nc3ccccc3[nH]2)cc1
inactive

// outcome(item) with item = COc1ccc(-c2nc3cc(C)ccc3n2CC(=O)N=Nc2c(O)[nH]c3ccc(Br)cc23)cc1
active

====

# Tested on: SW-620 colon
# measurementDescription: NCI-60 one-dose screen, 48 h
# cond: 10 µM unless noted
Compounds without any hit were thinned out: in the full panel of roughly 83,000, 20% have a hit. Active and inactive are the calls of the source. How the source made its calls: active means growth percent below 10; inactive means the rest.
Assign a class; possible classes are 1.0 = active, 0.0 = inactive

// outcome(item) with item = C=CC(=O)Nc1ccc(C)c(Oc2ccc(Cl)cc2)c1
0.0

// outcome(item) with item = COc1ccc(/C=C/c2nc3ccccc3n3c(-c4ccc(Cl)cc4)nnc23)cc1
0.0

// outcome(item) with item = COC(=O)/C=C/c1cccc2c1C(=O)NC(C)(c1cc3ccccc3oc1=O)N2 (stereo not drawn)
0.0

// outcome(item) with item = CC12CC[C@@H]3[C@]4(C)COC(c5cn[nH]c5-c5cccc(Cl)c5)O[C@@H]4CC[C@@]3(C)[C@@H]1CC(C1=CCOC1=O)O2 (stereo partly drawn)
0.0

// outcome(item) with item = O=C(NN1C(=O)/C(=C/C=C/c2ccc([N+](=O)[O-])o2)SC1=S)c1cccc(O)c1
1.0

Further cases:
// outcome(item) with item = CCCSc1nc(Nc2ccc(S(N)(=O)=O)cc2)c(C#N)c(-c2ccc(Cl)cc2)n1
0.0

// outcome(item) with item = C/C(=N\Nc1ccc(S(N)(=O)=O)cc1)c1ccc(N=Nc2c(Nc3ccccc3)[nH][nH]c2=O)cc1
0.0

// outcome(item) with item = C[C@H]1CN(C(=O)c2ccc3c(NNC(=O)c4ccncn4)nc4cc(F)c(F)cc4n23)CCN1
0.0

// outcome(item) with item = CCCCc1c(Nn2cnnn2)no[n+]1[O-]
0.0

// outcome(item) with item = CN(C)CCCNC(=O)c1cc(NC(=O)c2cc(NC(=O)c3ccc(/C=C/c4ccccc4)cc3)cn2C)cn1C
1.0
